System: A549 NSCLC
Assay: NCI tumour cell line growth inhibition, 48 h
Catalogue of molecules with associated TGI

C[Si](C)(C)C1=C([Si](C)(C)C)C(Cl)(Cl)C1=O	49.7 µM
NNC(=O)c1cc(=O)[nH][nH]1	> 100 µM
CCc1ccccc1NNc1cc(=O)[nH]c(=O)[nH]1	57.3 µM
CC1=C(C(=O)Nc2cc(F)c(F)cc2F)C(c2ccc([N+](=O)[O-])cc2)C(C(=O)Nc2cc(F)c(F)cc2F)=C(C)N1	> 100 µM
COc1cc(CCc2ccc(N)cc2)cc(OC)c1OC	> 100 µM

Now look at this entry.
// query Dear colleague, I am looking for the recorded TGI of the following molecule: Nc1ncnc2c1ncn2C1OC(CO)C(O)C1N (stereo unspecified)
// result > 100 µM
